# measured on: c-kit (Homo sapiens)
# Construct: MO7e (human megakaryocytic leukemia cell line) which had been arrested for 20 hr; endogenous in cells; host or cells: MO7e human megakaryocytic leukemia cell line
# Sequence (P10721 26-976): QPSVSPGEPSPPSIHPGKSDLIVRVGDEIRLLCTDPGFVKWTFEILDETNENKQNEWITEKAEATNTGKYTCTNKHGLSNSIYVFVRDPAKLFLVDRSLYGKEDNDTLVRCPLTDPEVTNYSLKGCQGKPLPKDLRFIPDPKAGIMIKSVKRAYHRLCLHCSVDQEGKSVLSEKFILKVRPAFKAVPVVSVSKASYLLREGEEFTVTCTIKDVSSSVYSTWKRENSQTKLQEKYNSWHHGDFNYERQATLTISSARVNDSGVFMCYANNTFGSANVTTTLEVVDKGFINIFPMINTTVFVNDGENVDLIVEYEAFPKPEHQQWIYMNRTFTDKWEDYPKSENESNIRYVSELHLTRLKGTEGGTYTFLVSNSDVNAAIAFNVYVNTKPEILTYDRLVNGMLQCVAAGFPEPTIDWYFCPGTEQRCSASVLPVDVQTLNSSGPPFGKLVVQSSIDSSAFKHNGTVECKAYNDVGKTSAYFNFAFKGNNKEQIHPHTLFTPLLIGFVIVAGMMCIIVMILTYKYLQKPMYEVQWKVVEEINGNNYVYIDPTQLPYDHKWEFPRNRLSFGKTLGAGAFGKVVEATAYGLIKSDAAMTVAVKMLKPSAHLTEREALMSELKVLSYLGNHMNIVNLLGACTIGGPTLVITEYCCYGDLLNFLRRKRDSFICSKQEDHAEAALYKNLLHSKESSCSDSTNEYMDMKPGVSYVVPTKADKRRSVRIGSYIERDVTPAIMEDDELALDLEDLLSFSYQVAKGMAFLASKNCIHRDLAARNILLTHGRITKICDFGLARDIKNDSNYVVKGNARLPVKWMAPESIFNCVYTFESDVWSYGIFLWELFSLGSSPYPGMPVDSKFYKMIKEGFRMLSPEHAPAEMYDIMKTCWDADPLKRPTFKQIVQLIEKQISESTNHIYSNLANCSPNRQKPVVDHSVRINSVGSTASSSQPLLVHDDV
# assay comment: Inhibitory activity against c-kit autophosphorylation (MO7e cells, h-SCF)
# Type: cell-based
# conditions used: MO7e cells, h-SCF 50 ng/ml; read-out: c-kit IC50
quantity name: IC50 (nM)

Below, each entry is followed by its recorded IC50 result.
| molecule | measured on | unit annotation | IC50 |
| --- | --- | --- | --- |
| COc1cccc(OCCCOC(=O)Nc2ccc(Oc3ncnc4cc(OC)c(OC)cc34)cc2Cl)c1 | c-kit (Homo sapiens) | nM | 270 |
| COc1cc2nccc(Oc3ccc(NC(=O)OCCc4ccccc4)c(C)c3C)c2cc1OC | c-kit (Homo sapiens) | nM | 53 |
| COc1cc2nccc(Oc3cc(C)c(NC(=O)OCc4cccc(Cl)c4)cc3C)c2cc1OC | c-kit (Homo sapiens) | nM | 192 |

A. COc1cc2nccc(Oc3ccc(NC(=O)OCc4ccc(C(F)(F)F)cc4)cc3)c2cc1OC
B. COc1cc2ncnc(Oc3ccc(NC(=O)OCCCOc4ccccc4Cl)cc3)c2cc1OC
C. COc1cc2nccc(Oc3ccc(NC(=O)OC(C)c4ccc(F)cc4)cc3)c2cc1OC (stereo not shown)
D. COc1cc2nccc(Oc3cc(C)c(NC(=O)OCCc4cccc(C(F)(F)F)c4)cc3C)c2cc1OC
E. COc1cc2nccc(Oc3ccc(NC(=O)OC(C)c4cccc(Br)c4)cc3)c2cc1OC (stereo not shown)
Ask | hey, can you rank those molecules up there by IC50? biggest number first please Form entry: ranked labels (order as requested).
Reply | E, D, C, A, B

A. COc1cccc(OCCCOC(=O)Nc2ccc(Oc3ccnc4cc(OC)c(OC)cc34)c(C)c2C)c1 [Example 48]
B. COc1cccc(C(C)OC(=O)Nc2cc(C)c(Oc3ccnc4cc(OC)c(OC)cc34)cc2C)c1 (stereo not shown)
C. COc1cc2ncnc(Oc3ccc(NC(=O)OCCOc4cccc(F)c4)cc3)c2cc1OC
Ask | Sort (3 molecules) by IC50: min first. List labels; respect the requested ordering.
Reply | C, A, B
(C: 95 nM, A: 162 nM, B: 473 nM)
